Hello, the source for this data is ChEMBL document CHEMBL5291721, in case you need it.

- Tested target: UniProt:P15207
- Sequence (P15207 whole entry S389L): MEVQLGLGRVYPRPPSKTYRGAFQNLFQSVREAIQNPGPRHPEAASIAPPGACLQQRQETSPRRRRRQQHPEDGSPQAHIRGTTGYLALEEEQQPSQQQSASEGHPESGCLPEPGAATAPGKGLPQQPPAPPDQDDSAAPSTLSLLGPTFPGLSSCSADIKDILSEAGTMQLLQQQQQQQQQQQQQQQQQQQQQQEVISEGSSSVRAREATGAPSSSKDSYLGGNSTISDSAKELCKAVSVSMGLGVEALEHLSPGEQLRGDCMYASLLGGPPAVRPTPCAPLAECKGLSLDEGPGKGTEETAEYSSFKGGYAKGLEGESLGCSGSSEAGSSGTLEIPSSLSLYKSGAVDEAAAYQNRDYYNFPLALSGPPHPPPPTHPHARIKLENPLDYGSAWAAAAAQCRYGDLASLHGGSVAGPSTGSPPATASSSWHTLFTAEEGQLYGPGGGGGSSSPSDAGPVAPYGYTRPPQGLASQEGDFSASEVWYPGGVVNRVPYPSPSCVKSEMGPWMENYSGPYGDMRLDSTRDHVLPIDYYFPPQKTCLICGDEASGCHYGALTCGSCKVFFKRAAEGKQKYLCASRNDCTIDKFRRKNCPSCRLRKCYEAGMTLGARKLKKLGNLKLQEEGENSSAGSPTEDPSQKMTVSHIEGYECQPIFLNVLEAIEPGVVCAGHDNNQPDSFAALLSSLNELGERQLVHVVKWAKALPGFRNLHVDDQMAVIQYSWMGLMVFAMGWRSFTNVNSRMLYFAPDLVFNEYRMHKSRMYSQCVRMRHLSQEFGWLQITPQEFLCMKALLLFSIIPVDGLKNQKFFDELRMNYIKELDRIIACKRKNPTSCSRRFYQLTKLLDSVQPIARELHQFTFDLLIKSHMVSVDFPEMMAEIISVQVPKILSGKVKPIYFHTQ
- Format: functional
Test readout: AC50

Recorded AC50, per entry:
N=C(N)c1ccc2cc(OC(=O)c3ccc(N=C(N)N)cc3)ccc2c1 :: 12 µM
CCCN(CCc1cccs1)[C@H]1CCc2c(O)cccc2C1 :: > 30 µM
CN(C)C(=O)Oc1cc(OC(=O)N(C)C)cc(C(O)CNC(C)(C)C)c1 (stereo unspecified) :: > 30 µM

# input molecule: CCC(C)(Oc1ccc(C2(c3ccc(OC(C)(CC)C(=O)O)cc3)CCCCC2)cc1)C(=O)O (stereo unspecified) [CLINOFIBRATE] ; wanted: its AC50
> 30 µM

Entry under review: CCCCC[C@H](O)/C=C/[C@H]1[C@H](O)CC(=O)[C@@H]1C/C=C\CCCC(=O)O . Reported AC50?
> 30 µM

Endpoint output: AC50 of C[C@H]1Oc2cc(cnc2N)-c2c(nn(C)c2C#N)CN(C)C(=O)c2ccc(F)cc21 . Value?
> 30 µM

Suppose we examine the molecule CCOC(=O)Nc1ccc2c(c1)N(C(=O)CCN1CCOCC1)c1ccccc1S2 ; what AC50 value has been reported?
> 30 µM

Returns the measured AC50 for the input molecule. Input: Cc1ccc2c(-c3ccccc3)nc(=O)n(C(C)C)c2c1
15 µM

What value of measured AC50 is listed for CC(C)OC(=O)C(C(=O)OC(C)C)=C1SC=CS1 [MALOTILATE] ?
> 30 µM

Endpoint output: AC50 of CC1(C)C(/C=C/C=C/C=C/C=C2\N(CCCCS(=O)(=O)O)c3ccc4ccccc4c3C2(C)C)=[N+](CCCCS(=O)(=O)[O-])c2ccc3ccccc3c21 [INDOCYANINE GREEN ACID FORM] . Value?
> 30 µM

* * *

Endpoint: AC50. System: Beta-2 adrenergic receptor (Homo sapiens, UniProt P07550). Items follow. Further: assay procedure not described here.
Sequence (P07550 whole entry): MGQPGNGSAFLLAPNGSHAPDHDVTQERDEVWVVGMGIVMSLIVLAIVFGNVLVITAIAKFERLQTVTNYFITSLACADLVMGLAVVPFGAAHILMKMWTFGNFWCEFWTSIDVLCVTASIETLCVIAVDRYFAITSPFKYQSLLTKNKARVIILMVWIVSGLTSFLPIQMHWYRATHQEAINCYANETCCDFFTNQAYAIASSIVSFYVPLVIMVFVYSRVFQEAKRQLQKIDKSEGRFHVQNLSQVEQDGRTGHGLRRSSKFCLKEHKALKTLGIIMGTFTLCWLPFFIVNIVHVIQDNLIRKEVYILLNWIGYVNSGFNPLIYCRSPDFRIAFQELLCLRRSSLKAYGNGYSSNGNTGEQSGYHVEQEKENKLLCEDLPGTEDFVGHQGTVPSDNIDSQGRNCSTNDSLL

Worked examples follow.
CC1(C)S[C@@H]2[C@H](NC(=O)[C@H](N)c3ccc(O)cc3)C(=O)N2[C@H]1C(=O)O :: > 30 µM
O=C(O)CSCC(=O)NC1CCSC1=O (stereo not drawn) :: > 30 µM
CC(=O)S[C@@H]1CC2=CC(=O)CC[C@]2(C)[C@H]2CC[C@@]3(C)[C@@H](CC[C@@]34CCC(=O)O4)[C@H]12 :: > 10 µM
COc1ccc2c(c1)[C@]13CCCC[C@@H]1[C@H](C2)N(C)CC3 :: > 10 µM
COC(=O)N[C@@H](C)CNc1nccc(-c2cn(C(C)C)nc2-c2cc(Cl)cc(NS(C)(=O)=O)c2F)n1 :: > 30 µM
CCn1cc(C(=O)O)c(=O)c2cc(F)c(N3CCNCC3)nc21 :: > 10 µM

Provide the documented AC50 with Beta-2 adrenergic receptor (Homo sapiens, UniProt P07550) as the system for C[C@]12CC[C@H](O)CC1=CC[C@@H]1[C@@H]2CC[C@]2(C)C(c3cccnc3)=CC[C@@H]12
> 30 µM

Quick check: AC50 on Beta-2 adrenergic receptor (Homo sapiens, UniProt P07550), item CC#CCn1c(N2CCC[C@@H](N)C2)nc2c1c(=O)n(Cc1nc(C)c3ccccc3n1)c(=O)n2C ?
> 10 µM

* * *

- Tested target: Type-1 angiotensin II receptor (Homo sapiens, UniProt P30556); further: assay procedure not described here
- Sequence (P30556 whole entry): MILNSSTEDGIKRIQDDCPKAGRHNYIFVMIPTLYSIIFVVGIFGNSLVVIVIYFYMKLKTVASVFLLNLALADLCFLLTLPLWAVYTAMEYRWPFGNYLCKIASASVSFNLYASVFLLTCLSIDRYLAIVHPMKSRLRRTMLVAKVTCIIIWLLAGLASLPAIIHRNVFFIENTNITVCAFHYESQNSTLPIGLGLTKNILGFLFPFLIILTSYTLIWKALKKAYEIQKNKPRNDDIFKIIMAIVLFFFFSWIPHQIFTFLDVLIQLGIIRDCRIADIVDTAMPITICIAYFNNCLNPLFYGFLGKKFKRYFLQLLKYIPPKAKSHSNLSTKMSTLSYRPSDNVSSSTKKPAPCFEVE
AC50: recorded values

Looking for the measured AC50 of CC(=O)OCC(CCn1cnc2cnc(N)nc21)COC(C)=O , can you help?
> 30 µM

Find the recorded AC50 belonging to O=C1CN=C(c2ccccc2)c2cc(Cl)ccc2N1 and report it.
> 30 µM

For the compound O=C(CCCN1CCC(n2c(O)nc3ccccc32)CC1)c1ccc(F)cc1 , what AC50 is on record?
> 30 µM

Find the recorded AC50 belonging to CCc1oc2ccccc2c1C(=O)c1cc(Br)c(O)c(Br)c1 and report it.
16 µM

Find the recorded AC50 belonging to Cc1ccc(NC(=O)C2(c3ccc4c(c3)OC(F)(F)O4)CC2)nc1-c1cccc(C(=O)O)c1 and report it.
> 30 µM

Suppose we examine the compound CN(C)C(=O)Oc1cc(OC(=O)N(C)C)cc(C(O)CNC(C)(C)C)c1 (stereo not drawn) ; what AC50 value has been reported?
> 30 µM

Fill in the blank: the reported AC50 of COc1ccnc(C[S+]([O-])c2nc3ccc(OC(F)F)cc3[nH]2)c1OC (stereo not drawn) is ____.
> 30 µM

* * *

- Tested target: Bile acid receptor (Homo sapiens); further: assay procedure not described here
- Sequence (Q96RI1 whole entry): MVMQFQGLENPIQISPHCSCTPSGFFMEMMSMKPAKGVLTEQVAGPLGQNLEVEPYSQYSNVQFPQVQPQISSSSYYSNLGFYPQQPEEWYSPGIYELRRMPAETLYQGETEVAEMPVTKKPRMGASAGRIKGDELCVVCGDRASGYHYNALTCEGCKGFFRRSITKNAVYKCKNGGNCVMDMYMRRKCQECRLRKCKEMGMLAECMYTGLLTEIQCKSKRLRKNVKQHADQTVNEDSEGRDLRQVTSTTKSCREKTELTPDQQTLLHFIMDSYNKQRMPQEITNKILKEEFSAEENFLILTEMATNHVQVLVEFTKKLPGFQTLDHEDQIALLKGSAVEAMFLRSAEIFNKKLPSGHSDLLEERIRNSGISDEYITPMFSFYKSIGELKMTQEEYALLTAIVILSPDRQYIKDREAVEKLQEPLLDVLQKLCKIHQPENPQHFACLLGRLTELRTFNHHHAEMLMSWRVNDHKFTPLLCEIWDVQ
- Type: functional
Test readout: AC50 (µM)
Report only the number, with the unit µM understood.

CCOc1cc(CC(=O)N[C@@H](CC(C)C)c2ccccc2N2CCCCC2)ccc1C(=O)O [REPAGLINIDE] :: 6.5

Report AC50 for CNC(=O)c1cc(Oc2ccc(NC(=O)Nc3ccc(Cl)c(C(F)(F)F)c3)c(F)c2)ccn1 please.
7.2

* * *

- Tested target: Amine oxidase [flavin-containing] A (Homo sapiens); further: assay procedure not described here
- Sequence (P21397 whole entry): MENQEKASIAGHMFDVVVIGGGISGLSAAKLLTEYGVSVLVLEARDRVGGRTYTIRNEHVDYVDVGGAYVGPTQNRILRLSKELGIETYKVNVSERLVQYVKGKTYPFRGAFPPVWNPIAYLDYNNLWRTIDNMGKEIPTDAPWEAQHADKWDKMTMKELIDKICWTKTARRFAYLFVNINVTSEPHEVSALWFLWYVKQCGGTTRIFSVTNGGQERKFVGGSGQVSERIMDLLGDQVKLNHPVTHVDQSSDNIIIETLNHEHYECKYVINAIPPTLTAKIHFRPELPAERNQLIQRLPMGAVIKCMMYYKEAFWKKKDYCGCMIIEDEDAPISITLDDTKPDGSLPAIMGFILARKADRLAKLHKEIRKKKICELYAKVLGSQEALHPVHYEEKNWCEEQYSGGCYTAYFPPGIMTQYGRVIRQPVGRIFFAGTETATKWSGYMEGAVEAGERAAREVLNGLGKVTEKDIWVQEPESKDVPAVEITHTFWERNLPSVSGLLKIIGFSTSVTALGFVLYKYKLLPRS
- Format: functional
Test readout: AC50

Consider the reported AC50 for these compounds:
Oc1c(I)cc(Cl)c2cccnc12 [CLIOQUINOL] :: > 30 µM
O=C(O)CSCC(=O)NC1CCSC1=O (stereo not drawn) [ERDOSTEINE] :: > 30 µM
CC1(C)O[C@@H]2C[C@H]3[C@@H]4C[C@H](F)C5=CC(=O)C=C[C@]5(C)[C@H]4[C@@H](O)C[C@]3(C)[C@]2(C(=O)CO)O1 [FLUNISOLIDE] :: > 30 µM
CN(C)c1cc(NC(=O)CNC(C)(C)C)c(O)c2c1C[C@H]1C[C@H]3[C@H](N(C)C)C(O)=C(C(N)=O)C(=O)[C@@]3(O)C(O)=C1C2=O [TIGECYCLINE] :: > 30 µM
CS(=O)(=O)OCCCCOS(C)(=O)=O [BUSULFAN] :: > 30 µM

Record request: AC50 value, item CC#CCn1c(N2CCC[C@@H](N)C2)nc2c1c(=O)n(Cc1nc(C)c3ccccc3n1)c(=O)n2C [LINAGLIPTIN]
> 10 µM

Recorded AC50 of O=C(O)c1ccccc1OP(=O)(O)O [FOSFOSAL] , please.
> 30 µM

Using the record for CC1(C)C(/C=C/C=C/C=C/C=C2\N(CCCCS(=O)(=O)O)c3ccc4ccccc4c3C2(C)C)=[N+](CCCCS(=O)(=O)[O-])c2ccc3ccccc3c21 [INDOCYANINE GREEN ACID FORM] , report its AC50.
> 30 µM

Would you mind telling me what AC50 value was observed for CN1c2ccccc2C(NCCCCCCC(=O)O)c2ccc(Cl)cc2S1(=O)=O (stereo not drawn) [TIANEPTINE] ?
> 30 µM

Param item = C#Cc1cccc(Nc2ncnc3cc(OCCOC)c(OCCOC)cc23)c1 [ERLOTINIB] ; retrieve measured AC50.
> 30 µM

Give the measured AC50 of CCC(=O)O[C@@H](O[P@](=O)(CCCCc1ccccc1)CC(=O)N1C[C@H](C2CCCCC2)C[C@H]1C(=O)O)C(C)C [FOSINOPRIL] .
> 30 µM

AC50 for CC(=O)Oc1ccccc1C(=O)Nc1ncc([N+](=O)[O-])s1 [NITAZOXANIDE] ?
7.5 µM

Consider the compound COC1=C(OC)C(=O)C(CCCCCCCCCCO)=C(C)C1=O [IDEBENONE] and give its measured AC50.
8.5 µM

Which AC50 is listed for Cc1cccc(N(C)C(=S)Oc2ccc3ccccc3c2)c1 [TOLNAFTATE] ?
> 30 µM

Data request, read-out AC50, for CN1[C@@H]2CC[C@H]1C[C@@H](OC(=O)c1c[nH]c3ccccc13)C2 [TROPISETRON]
> 30 µM

Quick one: AC50 for CNCC[C@@H](Oc1ccccc1C)c1ccccc1 [ATOMOXETINE] ?
> 30 µM

What value of AC50 has been recorded for this entry: CC[C@H]1OC(=O)[C@H](C)[C@@H](O[C@H]2C[C@@](C)(OC)[C@@H](O)[C@H](C)O2)[C@H](C)[C@@H](O[C@@H]2O[C@H](C)C[C@H](N(C)C)[C@H]2O)[C@](C)(O)C[C@@H](C)/C(=N\OCOCCOC)[C@H](C)[C@@H](O)[C@]1(C)O [ROXITHROMYCIN]
> 30 µM

Item CC[C@@H](CO)NC(=O)[C@@H]1C=C2c3cccc4[nH]cc(c34)C[C@H]2N(C)C1 [METHYLERGONOVINE] has what recorded AC50?
> 30 µM

Tell me the measured AC50 of CN1CCN(CCCN2c3ccccc3Sc3ccc(S(=O)(=O)N(C)C)cc32)CC1 [THIOPROPERAZINE] , please.
> 30 µM

Which AC50 value belongs to CC(=O)S[C@@H]1CC2=CC(=O)CC[C@]2(C)[C@H]2CC[C@@]3(C)[C@@H](CC[C@@]34CCC(=O)O4)[C@H]12 [SPIRONOLACTONE] ?
> 30 µM

Which AC50 reading was recorded for the compound CO[C@@]1(NC(=O)Cc2cccs2)C(=O)N2C(C(=O)O)=C(COC(N)=O)CS[C@@H]21 [CEFOXITIN] ?
> 30 µM

Name the reported AC50 value associated with the compound Nc1nc(O)c2ncn(COC(CO)CO)c2n1 [GANCICLOVIR]
> 30 µM

AC50 for CC(C)OC(=O)C(C(=O)OC(C)C)=C1SC=CS1 [MALOTILATE] ?
> 30 µM
